target: Muscarinic acetylcholine receptor (Rattus norvegicus) (UniProt P08482+P08483+P08485+P08911+P10980); experiment: Inhibitory effect on muscarinic acetylcholine receptor binding affinity at a concentration of (10e -6)M; assay type: protein assay
PROPERTY NAME: inhibition (%)
Numeric answer only, unit % assumed.

Field: example entries. Status: answers known.
>>> numeric_result("COc1ccc2c(c1)C(NCCCNC1CCCCC1)c1cccnc1CO2 (stereo unspecified)")
-1
>>> numeric_result("COc1ccc2c(c1)C(NCCN1[C@H](C)CC[C@@H]1C)c1cccnc1CO2 (stereo partly specified)")
3
>>> numeric_result("CCN(CC)CCSC1c2cc(OC)ccc2OCc2ncccc21 (stereo unspecified)")
1
>>> numeric_result("CCN(CC)CC/C=C1\\c2cc(OC)ccc2OCc2ncccc21")
3
>>> numeric_result("CCN(CC)CCNC1c2cccnc2COc2c(OC)cccc21 (stereo unspecified)")
12
>>> numeric_result("CCN1CCCC1CNC1c2cc(OC)ccc2OCc2ncccc21 (stereo in doubt; 27)")
3
>>> numeric_result("COc1ccc2c(c1)C(NCCN1CCCC1)c1cccnc1CO2 (stereo unspecified)")
3
>>> numeric_result("CCN(CC)CC(=O)NC1c2cc(OC)ccc2OCc2ncccc21 (stereo unspecified)")
-3

Retrieve inhibition measured for COc1ccc2c(c1)C(NN1CCN(C)CC1)c1cccnc1CO2 (stereo unspecified) and print it.
2

// Input: CCN(CC)CCNC1c2cc(N(C)C)ccc2OCc2ncccc21 (stereo unspecified) . Output its inhibition only.
4

Quick one: give measured inhibition for COc1ccc2c(c1)C(N1CCN(C)CC1)c1cccnc1CO2 (stereo unspecified)
0
